- ASSAYED SYSTEM: Follistatin (Homo sapiens)
- METHOD SUMMARY: follistatin binders on small-molecule microarrays, primary screen, biochemical, small-molecule microarray, 635/667 nm fluorescence (AID 1132)
- COND: FST binding, 635 nm fluorescence, higher = more signal
Hi there, I'd appreciate the recorded composite z-score for every entry that follows.
Answers are plain numbers.

Completed entries (count: 3):
{"columns": ["MOLECULE", "composite z-score"],
 "data": [
  ["COC(=O)CC=C[C@@H](C)[C@@H](C=NOC(C)CN1CCCc2nc(C)c(C)cc21)NS(=O)(=O)c1ccc(C)cc1 (stereo partly specified)", 0.789],
  ["CC(=O)OC[C@H]1O[C@@H](ON=C(C)C)[C@H](OC(C)=O)[C@@H](OC(C)=O)[C@@H]1OC(C)=O", -1.27],
  ["C#CCCCON=C1C[C@@H](O)[C@@H](O)[C@@H]2[C@@H]3C(=O)N([C@@H](C)c4ccccc4)C(=O)[C@@H]3CC[C@@H]12", -0.326]
]}

Hey, can you go through the list below and give me composite z-score for every item?
1. CO[C@@H]1C=CCC(=O)N[C@@H](C)C(=O)OC[C@@H](NS(=O)(=O)c2ccc(C)cc2)[C@H](C)C=CCC(=O)OC[C@H]1C
2. COc1ccc2c(c1)O[C@@H](c1cccc(C(F)(F)F)c1)[C@H](O)C2=O
3. COc1ccc(O[C@H]2C=C[C@@H](c3ccccc3)O[C@@H]2CON=C(C)CCN2CCCc3nc(C)c(C)cc32)cc1
4. CON=C(C)CCN1CCCCc2nc(C)c(C)cc21
5. CC1(C)O[C@H]2OC([C@H](O)CON3C(=O)c4ccccc4C3=O)[C@H](O)[C@H]2O1 (stereo partly specified)
6. CCOC(=O)[C@H](Cc1ccccc1)NC(=O)CCC1CC(OC(=O)NCc2ccc3c(c2)OCO3)CC2(CCCC(COC(=O)NCCc3ccc(Cl)cc3)O2)O1 (stereo partly specified)
7. O=C1[C@H]2[C@H]3[C@H](O)[C@H](O)CC(=NOC[C@@H](O)COCc4ccco4)[C@@H]3CC[C@H]2C(=O)N1c1cccc(Oc2ccccc2)c1
8. CCCC[C@H]1CN2[C@@H](CC[C@@H](C)[C@@H]2c2ccc(Br)cc2)C(=O)O1

Solution:
1. 0.833
2. 0.282
3. 0.651
4. 0.925
5. 0.0275
6. 0.749
7. 0.942
8. 0.53

----------
- METHOD SUMMARY: basal 3T3-L1 adipocyte mitochondrial potential changes, profiling panel, cell-based, JC-1 fluorescence, 3T3-L1 adipocytes, 24 h, 100 nL compound (AID 1168); further: test concentration not given here
- COND: JC-1 mitochondrial fluorescence, higher = more signal, called active from +8 up or from −8 down
Calls of active or inactive are those of the source.
Hi there, I'd appreciate the recorded z-score for every entry that follows.

Completed entries (count: 3):
{"columns": ["COMPOUND", "z-score"],
 "data": [
  ["CC(=O)OC[C@H]1O[C@H](CC=NO[C@H](C)c2cn([C@@H]3COC[C@H]3O)nn2)C=C[C@@H]1OC(C)=O", "1.13 (inactive)"],
  ["COc1ccc(COC(=O)NN=C2C[C@@H](O)[C@@H](O)[C@@H]3[C@@H]4C(=O)N(C(C)(C)C)C(=O)[C@@H]4CC[C@@H]23)cc1", "-1.14 (inactive)"],
  ["COC(=O)[C@H](C)NC(=O)CCC1CC(OC(=O)NCCc2ccc(F)cc2)CC2(CCCC(COC(=O)NCC3CCCCC3)O2)O1 (some centres undefined)", "0.497 (inactive)"]
]}

Could you now consider this next compound?
Problem: For the compound shown here, "O=C(NN=C1C[C@@H](O)[C@@H](O)[C@@H]2[C@@H]3C(=O)N(c4ccc(F)cc4F)C(=O)[C@@H]3CC[C@H]12)OCc1ccccc1" , give the reported z-score.
Solution: 0.533 (inactive)

----------
- METHOD SUMMARY: small-molecule microarray binders of probe aCHRDL2, primary screen, biochemical, biotinylated probe, 635/667 nm fluorescence (AID 1100)
- COND: higher = more signal
MEASURE NAME: composite z-score
One number for each entry.

{"columns": ["COMPOUND", "composite z-score"],
 "data": [
  ["CC(=O)OC[C@H]1O[C@H](CC=NO[C@@H](C)c2cc(-c3c(C)cc(C)cc3C)no2)C=C[C@@H]1OC(C)=O", 0.0256],
  ["C#CCCCON=C1C[C@@H](O)[C@@H](O)[C@@H]2[C@@H]3C(=O)N(C4CCCCC4)C(=O)[C@@H]3CC[C@@H]12", -0.287],
  ["CCN1C(=O)[C@H]2[C@H]3[C@H](O)[C@H](O)CC(=NO[C@@H]4O[C@H](COC(C)=O)[C@@H](OC(C)=O)[C@H](OC(C)=O)[C@H]4OC(C)=O)[C@@H]3CC[C@H]2C1=O", -0.601]
]}

Hey, can you go through the list below and give me composite z-score for every item?
1. C[C@H]1CC[C@H]2C(=O)N[C@H](Cc3ccccc3)C(=O)N2[C@@H]1c1ccccc1
2. CC(C)CON=C1[C@H]2CCn3c(=O)n(C)c(=O)n3[C@H]2[C@H](O)[C@@H]2O[C@H]12
3. CCCNC(=O)OC[C@H]1O[C@H](CCON=C[C@@H](C)[C@H](OCc2ccccc2)C(C)C)C=C[C@@H]1Oc1ccc(OC)cc1
4. CCCNC(=O)OC[C@H]1O[C@H](CCON=C2c3cc(OC)ccc3O[C@H](c3cccc(OC)c3)[C@H]2O)C=C[C@@H]1Oc1ccc(OC)cc1
5. CC(CCN1CCc2nc(-c3ccccc3)c(-c3ccccc3)cc2C1)=NO[C@H](C)c1cn([C@H](CO)Cc2ccccc2)nn1
6. CC(CCN1CCCCc2nc(C)c(C)cc21)=NOC[C@@H](O)[C@H]1O[C@@H]2OC(C)(C)O[C@@H]2[C@H]1O
7. CCOC(=O)[C@H](CC(C)C)NC(=O)CCC1CC(OC(=O)NCc2ccc3c(c2)OCO3)CC2(CCCC(COC(=O)NCCC(C)C)O2)O1 (stereo not given in full)

Solution:
1. -0.225
2. -0.507
3. -0.228
4. -0.0136
5. 0.407
6. -1.02
7. -0.36

Hey, can you go through the list below and give me composite z-score for every item?
1. CC(C)=NO[C@@H](C)c1cn([C@H](CO)Cc2ccccc2)nn1
2. CC(=O)OC[C@H]1O[C@H](CC=NOC(C)CN2CCCCc3nc(C)c(C)cc32)C=C[C@@H]1OC(C)=O (stereo not given in full)
3. CC(CCC(=O)OC[C@H]1O[C@H](C#Cc2ccccc2)C=C[C@@H]1Oc1ccc(C)cc1)=NO[C@@H](C)c1cc(-c2c(C)cc(C)cc2C)no1
4. C[C@H]1CC[C@@H](C(=O)O)N[C@@H]1c1cccc(N2CCCC2=O)c1
5. O=C1C[C@H](c2ccccc2)[C@H](c2ccc(Br)cc2)O1
6. C#CCCCON=C1C[C@@H](O)[C@@H](O)[C@@H]2[C@@H]3C(=O)N(C[C@@H]4CCCO4)C(=O)[C@@H]3CC[C@@H]12
7. O=C1C2=CC[C@H]3C(=O)N(C[C@@H]4CCCO4)C(=O)[C@H]3[C@H]2[C@H](O)[C@@H]2O[C@H]12
8. CCN1C(=O)[C@H]2[C@H]3[C@H](O)[C@H](O)CC(=NOC[C@@H](O)COCc4ccco4)[C@H]3CC[C@H]2C1=O

Solution:
1: -0.832; 2: -0.199; 3: -0.0256; 4: -0.496; 5: -0.939; 6: -0.362; 7: -0.594; 8: -2.16

----------
- ASSAYED SYSTEM: Neurogenic locus notch homolog protein 3 (Homo sapiens)
- METHOD SUMMARY: NOTCH3 binders on small-molecule microarray, primary screen, biochemical, 635/667 nm fluorescence (AID 1096)
- COND: NOTCH3 binding, 635 nm fluorescence, higher = more signal
MEASURE NAME: composite z-score
One number for each entry.

Hey, can you go through the list below and give me composite z-score for every item?
1. CO[C@H]1COC(=O)[C@H](C)COC(=O)[C@@H](OCc2ccccc2)C=C[C@@H]1C
2. C=CC[C@@H]1C=C[C@H](ON=C(C)CCN2CCCCc3nc(C)c(C)cc32)[C@@H](CO)O1
3. CC(=O)OC[C@H]1O[C@H](C#CCCc2ccccc2)C=C[C@@H]1OC(C)=O
4. O=C(NN=C1C[C@@H](O)[C@@H](O)[C@@H]2[C@@H]3C(=O)N(Cc4ccc5c(c4)OCO5)C(=O)[C@@H]3CC[C@@H]12)OCc1ccccc1
5. CC(=O)OC[C@H]1O[C@H](C#CCC2CCCCC2)C=C[C@@H]1OC(C)=O
6. CC(CCN1CCc2nc(-c3ccccc3)c(-c3ccccc3)cc2C1)=NOC(C)CN1CCCc2nc(C)c(C)cc21 (stereo not drawn)

Solution:
1. -0.732
2. 0.67
3. 0.341
4. -0.142
5. 0.568
6. 1.09

Hey, can you go through the list below and give me composite z-score for every item?
1. C#CCCCON=C1C[C@@H](O)[C@@H](O)[C@@H]2[C@@H]3C(=O)N(CC)C(=O)[C@@H]3CC[C@H]12
2. CCOC(=O)[C@H](CC(C)C)NC(=O)CCC1CC(OC(=O)NCc2ccc3c(c2)OCO3)CC2(CCCC(COC(=O)NCCc3ccc(Cl)cc3)O2)O1 (stereo partly drawn)

Solution:
0.348
0.951
